Target: Glycogen phosphorylase, muscle form (Oryctolagus cuniculus) (UniProt P00489)
Sequence (P00489 whole entry): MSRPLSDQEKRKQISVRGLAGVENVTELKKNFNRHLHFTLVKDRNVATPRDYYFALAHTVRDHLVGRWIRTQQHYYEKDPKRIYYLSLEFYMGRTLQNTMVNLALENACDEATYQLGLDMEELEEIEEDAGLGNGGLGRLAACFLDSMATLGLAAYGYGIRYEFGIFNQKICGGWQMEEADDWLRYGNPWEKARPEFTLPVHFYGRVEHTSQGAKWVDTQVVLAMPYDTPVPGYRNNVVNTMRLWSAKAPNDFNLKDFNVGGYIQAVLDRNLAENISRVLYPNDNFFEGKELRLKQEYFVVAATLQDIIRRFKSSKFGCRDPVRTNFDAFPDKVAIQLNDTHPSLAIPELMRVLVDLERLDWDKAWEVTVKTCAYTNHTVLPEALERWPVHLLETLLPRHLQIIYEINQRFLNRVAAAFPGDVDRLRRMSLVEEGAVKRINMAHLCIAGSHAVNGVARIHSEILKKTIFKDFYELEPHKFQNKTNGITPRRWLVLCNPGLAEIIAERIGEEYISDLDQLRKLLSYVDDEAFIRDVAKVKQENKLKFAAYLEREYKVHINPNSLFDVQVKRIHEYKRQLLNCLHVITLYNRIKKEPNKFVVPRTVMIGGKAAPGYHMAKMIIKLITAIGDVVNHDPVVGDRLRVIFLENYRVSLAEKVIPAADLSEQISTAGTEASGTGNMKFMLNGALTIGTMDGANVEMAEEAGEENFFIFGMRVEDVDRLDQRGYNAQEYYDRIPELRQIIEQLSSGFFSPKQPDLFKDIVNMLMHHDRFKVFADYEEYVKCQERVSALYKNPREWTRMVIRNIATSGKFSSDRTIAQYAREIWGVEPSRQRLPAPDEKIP
Assay: Inhibition of rabbit muscle glycogen phosphorylase-a assessed as formation of inorganic phosphate from glucose-1-phosphate at 222 uM by colorimetry
Reported inhibition values for the following compounds.
Please respond with the number in % and leave the unit unwritten.

The cases that follow already have their inhibition on record.
CCOC(=O)Cn1cccc(NCc2ccc(Cl)c(Cl)c2)c1=O	43
CCOC(=O)Cn1cccc(NCc2cccn2S(=O)(=O)c2ccc(C)cc2)c1=O	75
O=C(Cn1cccc(NCc2ccc(Cl)c(Cl)c2)c1=O)Nc1ccc(Cl)c(Cl)c1	98
O=C(Cn1cccc(NC(=O)c2ccccc2)c1=O)Nc1ccc(Cl)c(Cl)c1	100

Now, please, on to the next compound.
Q) Consider the compound shown here: CCOC(=O)Cn1cccc(NCc2ccc(Cl)cc2)c1=O What is its recorded inhibition?
A) 75

----------
Target: Glycogen phosphorylase, muscle form (Oryctolagus cuniculus)
Experiment: Inhibition of rabbit muscle glycogen phosphorylase-a assessed as formation of inorganic phosphate from glucose-1-phosphate by colorimetry
Details: read-out: IC50
RESULT_TYPE: IC50 (µM)
Please respond with the number in µM and leave the unit unwritten.

O=C(Cn1cccc(NCc2ccc(Cl)c(Cl)c2)c1=O)NCCc1ccccc1	31.3

Q) Consider the molecule shown here: O=C(Cn1cccc(NCc2ccc(Cl)cc2)c1=O)NCc1ccc(Cl)c(Cl)c1 What is its recorded IC50?
A) 2.1

Q) Consider the molecule shown here: O=C(Cn1cccc(NCc2ccccc2Cl)c1=O)NCc1ccc(Cl)c(Cl)c1 What is its recorded IC50?
A) 18.5

Q) Consider the molecule shown here: O=C(Cn1cccc(NCc2ccccc2Cl)c1=O)Nc1ccc(Cl)c(Cl)c1 What is its recorded IC50?
A) 57

Q) Consider the molecule shown here: Cc1ccc(S(=O)(=O)n2cccc2CNc2cccn(CC(=O)NCc3ccc(Cl)c(Cl)c3)c2=O)cc1 What is its recorded IC50?
A) 3.4

----------
Molecular target: Glycogen phosphorylase, muscle form (Oryctolagus cuniculus, UniProt P00489)
Sequence (P00489 whole entry): as above
Assay: Inhibition of rabbit muscle glycogen phosphorylase-a assessed as formation of inorganic phosphate from glucose-1-phosphate by colorimetry
Conditions: read-out: IC50(app)
Output yes for records whose IC50 is lower than 20 µM, no for records at or above 20 µM.

Q) Here's an entry: O=C(Cn1cccc(NCc2ccc([N+](=O)[O-])cc2)c1=O)NCc1ccc(Cl)c(Cl)c1 . Is its IC50 below 20 µM?
A) yes

----------
Reported IC50 values for the following compounds.
Biological target: Glycogen phosphorylase, muscle form (Oryctolagus cuniculus)
Test: Inhibition of rabbit muscle glycogen phosphorylase-a assessed as formation of inorganic phosphate from glucose-1-phosphate by colorimetry
Conditions: read-out: IC50
Please respond with the number in µM and leave the unit unwritten.

O=C(Cn1cccc(NCc2cccc(Cl)c2)c1=O)NCc1ccc(Cl)c(Cl)c1	5.66
O=C(Cn1cccc(NCc2ccc(Cl)c(Cl)c2)c1=O)NCc1ccc(Cl)c(Cl)c1	1.92
O=C(Cn1cccc(NCCCc2ccccc2)c1=O)NCCc1ccc(Cl)c(Cl)c1	68

Q) Consider the compound shown here: O=C(Cn1cccc(NCc2ccc(Cl)c(Cl)c2)c1=O)NCc1ccccc1 What is its recorded IC50?
A) 10.2

----------
Target: Glycogen phosphorylase, muscle form (Oryctolagus cuniculus)
Assay: Inhibition of rabbit muscle glycogen phosphorylase-a assessed as formation of inorganic phosphate from glucose-1-phosphate at 222 uM by colorimetry
RESULT_TYPE: inhibition
Form field: result (number plus unit)

The cases that follow already have their inhibition on record.
CCCNC(=O)Cn1cccc(NCc2ccc(Cl)c(Cl)c2)c1=O	67%
Cc1ccc(S(=O)(=O)Nc2cccn(CC(=O)NCc3ccc(Cl)c(Cl)c3)c2=O)cc1	37%
O=C(Cn1cccc(NCc2cccs2)c1=O)NCc1ccc(Cl)c(Cl)c1	73%

Q) Consider the compound shown here: O=C(Cn1cccc(NCc2ccccc2Cl)c1=O)NCc1ccc(Cl)c(Cl)c1 What is its recorded inhibition?
A) 77%
